Counter-ions that a name gives are not always drawn.
Examples of compounds with documented melting point follow.

Cc1cc(-c2c(C)nc3ccc(N4CCN(C(C)C)CC4)nn23)ccn1 :: 97 to 99 °C

The reported value for `Cc1cc(-c2c(C)nc3ccc(N4C[C@H]5CCN[C@@H]5C4)nn23)ccn1` in terms of melting point is 131 to 133 °C

The reported value for Cc1cc(-c2c(C)nc3ccc(N4CCC5(CCCNC5)CC4)nn23)ccn1 (as salt: HCl) in terms of melting point is > 295 °C

The reported value for Cc1nc2ccc(N3C[C@@H](C)N[C@@H](C)C3)nn2c1-c1ccncc1 (as salt: HCl) in terms of melting point is 343 to 345 °C

The reported value for `CC(C)Cc1nc2ccc(N3CCNCC3)nn2c1-c1ccncc1` in terms of melting point is 92 to 119 °C

The reported value for Cc1nc2ccc(N3CC4CNCC4C3)nn2c1-c1ccnc(N)c1 (stereo not shown) in terms of melting point is > 155 °C (dec.)

The reported value for COc1cc(-c2c(C)nc3ccc(N4CC5CNCC5C4)nn23)ccn1 (stereo not shown) in terms of melting point is 95 °C

The reported value for `CN1CCN(c2ccc3nc(C(F)(F)F)c(-c4ccncc4)n3n2)CC1` in terms of melting point is 182 to 184 °C

The reported value for `Cc1nc2ccc(N3CCC(N4CCCC4)CC3)nn2c1-c1ccnc(N)c1` in terms of melting point is 129 to 138 °C

The reported value for Cc1nc2ccc(N3CC4CNCC4C3)nn2c1-c1ccncc1 (stereo not shown) in terms of melting point is 153 to 155 °C

* * *

target.entity: human CK1 delta (Homo sapiens, UniProt P48730)
Sequence (P48730 whole entry): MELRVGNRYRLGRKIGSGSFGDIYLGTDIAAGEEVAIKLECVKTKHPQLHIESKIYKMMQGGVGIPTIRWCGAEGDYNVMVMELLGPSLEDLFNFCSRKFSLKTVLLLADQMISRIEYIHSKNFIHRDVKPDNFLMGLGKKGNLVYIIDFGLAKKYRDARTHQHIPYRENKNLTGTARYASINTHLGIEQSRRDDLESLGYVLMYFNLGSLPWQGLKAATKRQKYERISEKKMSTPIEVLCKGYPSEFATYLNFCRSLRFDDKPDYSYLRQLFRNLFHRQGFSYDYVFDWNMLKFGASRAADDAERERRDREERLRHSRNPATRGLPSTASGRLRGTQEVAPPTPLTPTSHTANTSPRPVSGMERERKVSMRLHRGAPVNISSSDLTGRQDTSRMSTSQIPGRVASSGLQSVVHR
method.notes: FRET Z'Lyte kinase assay, CK1 delta
measurement.conditions: peptide substrate SER/THR 11 2 μM, ATP 4 times the KM, read-out: CK1 delta Cl50
pIC50: −log10 of the molar value.
Examples of molecules with documented pIC50 follow.

Cc1nc2ccc(N3C[C@@H](C)N[C@@H](C)C3)nn2c1-c1ccncc1 [Compound 54] :: > 9.00

The reported value for Cc1nc2ccc(N3CCNCC3)nn2c1-c1ccncc1 [Compound 1] in terms of pIC50 is > 9.00

* * *

Examples of compounds with documented melting point follow.

The reported value for Cc1cc(-c2c(C)nc3ccc(N4CCN[C@H](C)C4)nn23)ccn1 [Compound 27] in terms of melting point is 157 to 159 °C

The reported value for CCN1CCN(c2ccc3nc(C)c(-c4ccnc(C)c4)n3n2)CC1 [Compound 43] in terms of melting point is 144 to 146 °C

* * *

Structures can show the parent of a compound that is named as a salt.
value.type: melting point

Cc1nc2ccc(N3CCNC(CO)C3)nn2c1-c1ccncc1 (stereo not drawn) :: 237 to 240 °C
Cc1cc(-c2c(C)nc3ccc(N4C[C@@H]5C[C@@H]4CN5)nn23)ccn1 (as salt: HBr) :: > 300 °C
Cc1nc2ccc(N3C[C@@H]4C[C@H]3CN4)nn2c1-c1ccncc1 :: 120 °C (dec.)
Cc1nc2ccc(N3CCN(C)CC3)nn2c1-c1ccncc1 :: 150 to 152 °C
Cc1nc2ccc(N3CC4CN(C(C)C)CC4C3)nn2c1-c1ccnc(N)c1 (stereo not drawn) :: 215 to 218 °C
Cc1nc2ccc(N3CCC4(CC3)CNCCO4)nn2c1-c1ccncc1 (as salt: HCl) :: > 255 °C
Cc1nc2ccc(N3C[C@H]4CCCN[C@@H]4C3)nn2c1-c1ccncc1 :: 130 to 135 °C
Cc1nc2ccc(N3CCN[C@@H](C)C3)nn2c1-c1ccnc(N)c1 :: 172 to 177 °C

Consider the record given below.
The reported value for `Cc1cc(-c2c(C)nc3ccc(N4CCC5(CC4)CNC5)nn23)ccn1` in terms of melting point is 117 to 120 °C
